- System: Escherichia coli TOP10
- assay-remarks: shrunken log2 fold change of peptide-encoding DNA abundance (4.5 h post-induction vs induction); higher = less antimicrobial activity (less host growth inhibition)
- conditions-used: time post-induction: 4.5 h; library: site-saturation at positions 5, 18, 19, 20
Assign fulfilled to entries whose shrunken log2 fold change meets or exceeds -0.002; assign not fulfilled to the rest.

1) RRIRYRPPRLPRPRPRPCYRPRP not fulfilled
2) RRIRCRPPRLPRPRPRPWNQPRP not fulfilled
3) RRIRARPPRLPRPRPRPSHWPRP not fulfilled
4) RRIRTRPPRLPRPRPRPYFMPRP not fulfilled
5) RRIRTRPPRLPRPRPRPPCHPRP not fulfilled
6) RRIRCRPPRLPRPRPRPERCPRP fulfilled
7) RRIRSRPPRLPRPRPRPGNDPRP fulfilled
8) RRIRKRPPRLPRPRPRPCDWPRP not fulfilled
9) RRIRIRPPRLPRPRPRPFAPPRP fulfilled
10) RRIRPRPPRLPRPRPRPCRRPRP fulfilled
11) RRIRERPPRLPRPRPRPFVFPRP not fulfilled
12) RRIRPRPPRLPRPRPRPSIPPRP not fulfilled
13) RRIRKRPPRLPRPRPRPFGMPRP not fulfilled
14) RRIRSRPPRLPRPRPRPEHPPRP fulfilled
15) RRIRNRPPRLPRPRPRPNHMPRP not fulfilled
16) RRIRLRPPRLPRPRPRPTWNPRP not fulfilled
17) RRIRTRPPRLPRPRPRPDYLPRP not fulfilled
18) RRIRPRPPRLPRPRPRPIEQPRP fulfilled
19) RRIRKRPPRLPRPRPRPMMDPRP fulfilled
20) RRIRHRPPRLPRPRPRPYSAPRP fulfilled
21) RRIRRRPPRLPRPRPRPFFCPRP fulfilled
22) RRIRMRPPRLPRPRPRPKIFPRP fulfilled
23) RRIRTRPPRLPRPRPRPQCEPRP not fulfilled
24) RRIRSRPPRLPRPRPRPRVIPRP fulfilled
25) RRIRGRPPRLPRPRPRPVFTPRP fulfilled
26) RRIRRRPPRLPRPRPRPTKRPRP fulfilled
27) RRIRFRPPRLPRPRPRPLAAPRP fulfilled
28) RRIRARPPRLPRPRPRPLCDPRP fulfilled
29) RRIRTRPPRLPRPRPRPLKPPRP not fulfilled
30) RRIRIRPPRLPRPRPRPGLTPRP not fulfilled
31) RRIRERPPRLPRPRPRPAMPPRP not fulfilled
32) RRIRPRPPRLPRPRPRPCVDPRP not fulfilled
33) RRIRMRPPRLPRPRPRPEFQPRP fulfilled
34) RRIRCRPPRLPRPRPRPERNPRP not fulfilled
35) RRIRRRPPRLPRPRPRPKVEPRP fulfilled
36) RRIRHRPPRLPRPRPRPWRQPRP fulfilled
37) RRIRKRPPRLPRPRPRPTPWPRP fulfilled
38) RRIRDRPPRLPRPRPRPCRSPRP not fulfilled
39) RRIRKRPPRLPRPRPRPENMPRP fulfilled
40) RRIRIRPPRLPRPRPRPVYGPRP not fulfilled
41) RRIRWRPPRLPRPRPRPRGKPRP fulfilled
42) RRIRYRPPRLPRPRPRPQVNPRP not fulfilled
43) RRIRFRPPRLPRPRPRPYCTPRP not fulfilled
44) RRIRLRPPRLPRPRPRPMPLPRP not fulfilled
45) RRIRERPPRLPRPRPRPFNDPRP not fulfilled
46) RRIRERPPRLPRPRPRPNWPPRP fulfilled
47) RRIRYRPPRLPRPRPRPQGQPRP not fulfilled
48) RRIRPRPPRLPRPRPRPIKSPRP not fulfilled
49) RRIRHRPPRLPRPRPRPCTYPRP not fulfilled
50) RRIRARPPRLPRPRPRPTPFPRP fulfilled
51) RRIRRRPPRLPRPRPRPRYHPRP fulfilled
52) RRIRVRPPRLPRPRPRPYPFPRP not fulfilled
53) RRIRDRPPRLPRPRPRPQCGPRP fulfilled
54) RRIRIRPPRLPRPRPRPLTRPRP not fulfilled
55) RRIRPRPPRLPRPRPRPDSFPRP not fulfilled

====

- Tested on: Escherichia coli TOP10
- assay-remarks: shrunken log2 fold change of peptide-encoding DNA abundance (4.5 h post-induction vs induction); higher = less antimicrobial activity (less host growth inhibition)
- conditions-used: time post-induction: 4.5 h; library: site-saturation at positions 5, 18, 19, 20
endpoint-label: shrunken log2 fold change

1. RRIRWRPPRLPRPRPRPAHPPRP 0.304
2. RRIRHRPPRLPRPRPRPPKIPRP 0.282
3. RRIRGRPPRLPRPRPRPWVVPRP 0.273

====

Reported shrunken log2 fold change values follow for various sequences
- Tested on: Escherichia coli TOP10
- assay-remarks: shrunken log2 fold change of peptide-encoding DNA abundance (4.5 h post-induction vs induction); higher = less antimicrobial activity (less host growth inhibition)
- conditions-used: time post-induction: 4.5 h; library: site-saturation at positions 5, 18, 19, 20
endpoint-label: shrunken log2 fold change

1. RRIRRRPPRLPRPRPRPFTIPRP 0.0518
2. RRIRLRPPRLPRPRPRPAWGPRP 0.444
3. RRIRERPPRLPRPRPRPVCGPRP 0.243
4. RRIRSRPPRLPRPRPRPDIEPRP 0.0454
5. RRIRHRPPRLPRPRPRPFSSPRP 0.107

====

- System: Escherichia coli TOP10
- assay-remarks: shrunken log2 fold change of peptide-encoding DNA abundance (4.5 h post-induction vs induction); higher = less antimicrobial activity (less host growth inhibition)
- conditions-used: time post-induction: 4.5 h; library: site-saturation at positions 5, 18, 19, 20
endpoint-label: shrunken log2 fold change

1) RRIRMRPPRLPRPRPRPDGAPRP 2.17
2) RRIRQRPPRLPRPRPRPTRAPRP 0.647
3) RRIRCRPPRLPRPRPRPMQAPRP 0.249
4) RRIRCRPPRLPRPRPRPDESPRP 0.153
5) RRIRFRPPRLPRPRPRPEHSPRP -0.00202
6) RRIRKRPPRLPRPRPRPWCAPRP 0.113
7) RRIRGRPPRLPRPRPRPRIQPRP 0.337
8) RRIRLRPPRLPRPRPRPKPSPRP 0.432
9) RRIRARPPRLPRPRPRPAEWPRP 0.245
10) RRIRDRPPRLPRPRPRPSEWPRP -0.0637
11) RRIRMRPPRLPRPRPRPSPDPRP 1.19
12) RRIRGRPPRLPRPRPRPQKRPRP 0.662
13) RRIRWRPPRLPRPRPRPVNVPRP -0.328
14) RRIRARPPRLPRPRPRPAVCPRP 0.442
15) RRIRWRPPRLPRPRPRPETWPRP 0.502
16) RRIRWRPPRLPRPRPRPHYFPRP -0.087
17) RRIRGRPPRLPRPRPRPRHGPRP 0.264
18) RRIRNRPPRLPRPRPRPSFLPRP -0.473
19) RRIRKRPPRLPRPRPRPPWHPRP 0.349
20) RRIRFRPPRLPRPRPRPKVRPRP -0.022
21) RRIRYRPPRLPRPRPRPKGDPRP -0.0902
22) RRIRFRPPRLPRPRPRPEQAPRP -0.0421
23) RRIRDRPPRLPRPRPRPFYRPRP 0.03
24) RRIRKRPPRLPRPRPRPGQPPRP 0.0678
25) RRIRCRPPRLPRPRPRPFLHPRP -0.703
26) RRIRGRPPRLPRPRPRPCYWPRP 0.553
27) RRIRGRPPRLPRPRPRPDYIPRP -0.144
28) RRIRPRPPRLPRPRPRPTRSPRP 0.365
29) RRIRTRPPRLPRPRPRPWASPRP -0.068
30) RRIRIRPPRLPRPRPRPNRCPRP -0.154
31) RRIRARPPRLPRPRPRPRWHPRP 0.323

====

- System: Escherichia coli TOP10;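 further: peptides expressed intracellularly from a pBAD plasmid library in pooled LB shake-flask culture, induced with 0.3% L-arabinose, DNA abundance read by NGS, three biological replicates, DESeq2 with apeglm shrinkage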
- assay-remarks: shrunken log2 fold change of peptide-encoding DNA abundance (4.5 h post-induction vs induction); higher = less antimicrobial activity (less host growth inhibition)
- conditions-used: time post-induction: 4.5 h; library: site-saturation at positions 5, 18, 19, 20
endpoint-label: shrunken log2 fold change

1. RRIRARPPRLPRPRPRPEKYPRP 0.101
2. RRIRQRPPRLPRPRPRPWNHPRP -0.0081
3. RRIRARPPRLPRPRPRPQWEPRP 0.196
4. RRIRIRPPRLPRPRPRPFAFPRP -0.155
5. RRIRGRPPRLPRPRPRPWETPRP 0.272
6. RRIRYRPPRLPRPRPRPETMPRP -0.062
7. RRIRYRPPRLPRPRPRPIPKPRP 0.141
8. RRIRLRPPRLPRPRPRPFPQPRP -0.0558
9. RRIRDRPPRLPRPRPRPQTLPRP 0.0519
10. RRIRERPPRLPRPRPRPTAPPRP -0.043
11. RRIRKRPPRLPRPRPRPNHKPRP -0.203
12. RRIRHRPPRLPRPRPRPWMSPRP -0.0135
13. RRIRARPPRLPRPRPRPTQVPRP 0.224
14. RRIRLRPPRLPRPRPRPKHWPRP 0.31
15. RRIRGRPPRLPRPRPRPRIPPRP 0.424
16. RRIRFRPPRLPRPRPRPFAVPRP -0.354
17. RRIRNRPPRLPRPRPRPQRKPRP 0.103
18. RRIRSRPPRLPRPRPRPGQNPRP 0.323
19. RRIRSRPPRLPRPRPRPLMIPRP -0.764
20. RRIRRRPPRLPRPRPRPVAKPRP 0.386
21. RRIRTRPPRLPRPRPRPGWNPRP -0.039
22. RRIRNRPPRLPRPRPRPWAGPRP 0.163

Recorded values, source the supplement of paper PMC9112550.
